# System: B. subtilis ATCC 6633
# assay: Whole cell antimicrobial screen, MIC
# Assay type: cell-based
# stated.conditions: Bacillus subtilis, ATCC6633
property.name: MIC (µg/mL)
Answers are plain numbers, in µg/mL.

Q: Tell me its MIC given CC[C@H](C)[C@H](N)C(=O)NS(=O)(=O)OC[C@H]1O[C@@H](CCn2nnc(N3CCN(c4ccccc4)CC3)n2)[C@H](O)[C@@H]1O as the entry.
Result: 400

Q: Specify measured MIC for CC[C@H](C)[C@H](N)C(=O)NS(=O)(=O)OC[C@H]1O[C@@H](CCn2nnc(-c3ccc(-c4ccccc4C)c(C)c3)n2)[C@H](O)[C@@H]1O .
Result: 25

Consider the following items and state reported MIC for each.
1. CC[C@H](C)[C@H](N)C(=O)NS(=O)(=O)OC[C@H]1O[C@@H](CCn2nnc(-c3ccc(-c4ccc(F)c(F)c4)cc3)n2)[C@H](O)[C@@H]1O
2. CC[C@H](C)[C@H](N)C(=O)NS(=O)(=O)OC[C@H]1O[C@@H](CCn2nnc(-c3ccc(-c4ccccc4)c(C)c3)n2)[C@H](O)[C@@H]1O
3. CC[C@H](C)[C@H](N)C(=O)NS(=O)(=O)OC[C@H]1O[C@@H](CCn2nnc(-c3ccc(-c4ccccc4C)cc3)n2)[C@H](O)[C@@H]1O

Result:
1. 50
2. 50
3. 50

Q: In one line, give reported MIC of the entry CC[C@H](C)[C@H](N)C(=O)NS(=O)(=O)OC[C@H]1O[C@@H](CCn2nnc(-c3ccc(Oc4ccccc4)cc3)n2)[C@H](O)[C@@H]1O .
Result: 10
